Quick reference: OD450 nm of the listed items.
molecular target: T1, human GPC3-His protein (human, UniProt P51654 25-559); test: ELISA, coated human GPC3, antibody 0.001 nM
T1 construct: Bought protein; also called human GPC3 protein; not shown: His tag

BINDER | OD450 nm / OD450
F1.110.24 human-murine chimeric antibody (antibody, human IgG1, kappa, V domains shown) VH: EVKLVESGGGLVQPGGSLKLSCAASGFTFSDFYMYWVRQTPEKRLEWVAFISNGGGSTYYPDTVKGRFTISRDNVKNTLYLQMSRLKSEDTAMYYCARPDTSWFAYWGQGSLVTVSA VL: DIQMTQTTSSLSASLGDRVTISCRASQDIDNYLNWYQQKPDGTVKVLISYTSRLHSGVPSRFSGSGSGTDYSLTISNLEQEDIATYFCQQGNTLPWTFGGGTKLEIKR | 0.09
F2.23.8 human-murine chimeric antibody (antibody, human IgG1, kappa, V domains shown) VH: QVQLQQSGAELVRPGASVKLSCKASGYTFTDYEMHWVKQTPVHGLEWFGAIDPETGGTAYNQKFRAKATLTADKSSSTAYMELRSLTSEDSAVYYCTRFYSFAYWGQGTLVTVSA VL: DVVMTQTPLSLPVSLGDQASISCRSSQSLVHSNGNTYLQWYLQKPGQSPKLLIYKVSNRFSGVPDRFSGSGSGTDFTLKITRVEAEDLGVYFCSQSTHVPYTFGSGTKLEIKR | 0.12
F3.38.7 human-murine chimeric antibody (antibody, human IgG1, kappa, V domains shown) VH: QVQLQQSGAELVRPGASVKLSCKASGYTFTDYEIHWVKQTPVLGLEWIGAIDPKTGNTAYNQKFMGKATLTADKSSTTAYMDLRSLTSEDSAVYYCTRYFSFAYWGQGTLVTVSA VL: DVLMTQTPLSLPVSLGDQASISCRSSQTFVHSNGNTYLQWYLQKPGQSPKLLIYKVSNRFSGVPDRFSGSGSGTDFTLKISRVEAEDLGVYYCFQGSHVPYTFGSGTKLEIKR | 0.13
F1.3.9 human-murine chimeric antibody (antibody, human IgG1, kappa, V domains shown) VH: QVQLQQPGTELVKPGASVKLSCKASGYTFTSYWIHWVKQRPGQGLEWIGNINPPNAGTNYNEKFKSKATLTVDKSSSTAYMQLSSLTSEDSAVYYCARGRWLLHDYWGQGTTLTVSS VL: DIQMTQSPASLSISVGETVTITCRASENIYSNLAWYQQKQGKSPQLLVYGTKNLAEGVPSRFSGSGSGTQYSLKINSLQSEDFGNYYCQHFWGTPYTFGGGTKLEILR | 0.11
F4.18.4 human-murine chimeric antibody (antibody, human IgG1, kappa, V domains shown) VH: QVQLHQSGAEMAKPGASVNLSCKTSGFTFTDYGISWVKQRTRQGLEWIGDIYPRHINIYYNEKFKDKATLTADRSSSTAYMELRSMTSEDSAVYFCARRGTTGRGALDYWGQGTSLTVSS VL: DILLTQSPAILSVSPGERVSFSCRASQSIGTSIHWYQQRTNGSPRLLIKYAFESISGIPSRFGGSGSRTDFTLTINSVESEDIADYYCQQTYNWPYTFGGGTKLEIKR | 0.15
